Measured viability, T/C by item
test system: Rh18 complex spheroid viability, percent test/control; test: Anticancer human tumor Rh18 cell line growth inhibition [Asc]; details: second compound 0.316 µM; first compound 0.00316 µM; stronger effect = lower value;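 further: spheroids exposed to compound for 7 days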;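 on viability, T/C: 100% = DMSO vehicle control wells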
Quantity Kind: viability, T/C (%)

- COc1c(OCCCN2CCOCC2)ccc2c3n(c(=NC(=O)c4cnc(N)nc4)nc12)CCN3 + CNC(C)C(=O)NC1CN(S(=O)(=O)c2cccc(S(=O)(=O)N3CCC4CCC(C(=O)NC(c5ccccc5)c5ccccc5)N4C(=O)C(NC(=O)C(C)NC)C3)c2)CCC2CCC(C(=O)NC(c3ccccc3)c3ccccc3)N2C1=O: 31.4
- O=C(c1ccc(F)c(F)c1Nc1ccc(I)cc1F)N1CC(O)([C@@H]2CCCCN2)C1 + Cc1c(S(C)(=O)=O)c(-c2cc(F)cc(N3CCN(c4ccc(NS(=O)(=O)c5ccc(NC(CCN6CCC(C(=O)OCCCP(=O)(O)O)CC6)CSc6ccccc6)c(S(=O)(=O)C(F)(F)F)c5)cc4)CC3)c2)c(-c2ccc(Cl)cc2)n1C(C)C: 9.21

###

test system: Rh18 complex spheroid viability, percent test/control; experiment: Anticancer human tumor Rh18 cell line growth inhibition [Asc]; settings: second compound 0.1 µM; first compound 0.000316 µM; stronger effect = lower value;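 further: spheroids exposed to compound for 7 days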;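 on viability, T/C: 100% = DMSO vehicle control wells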
Quantity Kind: viability, T/C (%)

* NC1CCC(NC2CC2c2ccccc2)CC1 (centres undefined) + CNC(C)C(=O)NC1CN(S(=O)(=O)c2cccc(S(=O)(=O)N3CCC4CCC(C(=O)NC(c5ccccc5)c5ccccc5)N4C(=O)C(NC(=O)C(C)NC)C3)c2)CCC2CCC(C(=O)NC(c3ccccc3)c3ccccc3)N2C1=O | 48.1
* Cn1ncnc1[C@H]1c2n[nH]c(=O)c3cc(F)cc(c23)N[C@@H]1c1ccc(F)cc1 + CNC(C)C(=O)NC1CN(S(=O)(=O)c2cccc(S(=O)(=O)N3CCC4CCC(C(=O)NC(c5ccccc5)c5ccccc5)N4C(=O)C(NC(=O)C(C)NC)C3)c2)CCC2CCC(C(=O)NC(c3ccccc3)c3ccccc3)N2C1=O | 39.4
* NC1CCC(NC2CC2c2ccccc2)CC1 (centres undefined) + Cc1c(S(C)(=O)=O)c(-c2cc(F)cc(N3CCN(c4ccc(NS(=O)(=O)c5ccc(NC(CCN6CCC(C(=O)OCCCP(=O)(O)O)CC6)CSc6ccccc6)c(S(=O)(=O)C(F)(F)F)c5)cc4)CC3)c2)c(-c2ccc(Cl)cc2)n1C(C)C | 13.1
* Cn1ncnc1[C@H]1c2n[nH]c(=O)c3cc(F)cc(c23)N[C@@H]1c1ccc(F)cc1 + Cc1c(S(C)(=O)=O)c(-c2cc(F)cc(N3CCN(c4ccc(NS(=O)(=O)c5ccc(NC(CCN6CCC(C(=O)OCCCP(=O)(O)O)CC6)CSc6ccccc6)c(S(=O)(=O)C(F)(F)F)c5)cc4)CC3)c2)c(-c2ccc(Cl)cc2)n1C(C)C | 17.4

###

Measured IC50 values are reported for all entries that follow.
system: Rh18 complex spheroid viability, percent test/control; assay: Anticancer human tumor Rh18 cell line growth inhibition [Asc]; details: curve of first compound; second compound 3.16 µM;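 further: spheroids exposed to compound for 7 days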
Quantity Kind: IC50

* CNC(C)C(=O)NC1CN(S(=O)(=O)c2cccc(S(=O)(=O)N3CCC4CCC(C(=O)NC(c5ccccc5)c5ccccc5)N4C(=O)C(NC(=O)C(C)NC)C3)c2)CCC2CCC(C(=O)NC(c3ccccc3)c3ccccc3)N2C1=O (configuration not stated) + Cc1c(S(C)(=O)=O)c(-c2cc(F)cc(N3CCN(c4ccc(NS(=O)(=O)c5ccc(NC(CCN6CCC(C(=O)OCCCP(=O)(O)O)CC6)CSc6ccccc6)c(S(=O)(=O)C(F)(F)F)c5)cc4)CC3)c2)c(-c2ccc(Cl)cc2)n1C(C)C | < 3.16 nM
* NC1CCC(NC2CC2c2ccccc2)CC1 (configuration not stated) + Cc1c(S(C)(=O)=O)c(-c2cc(F)cc(N3CCN(c4ccc(NS(=O)(=O)c5ccc(NC(CCN6CCC(C(=O)OCCCP(=O)(O)O)CC6)CSc6ccccc6)c(S(=O)(=O)C(F)(F)F)c5)cc4)CC3)c2)c(-c2ccc(Cl)cc2)n1C(C)C | < 0.316 nM

###

tested on: Rh18 complex spheroid viability, percent test/control; assay: Anticancer human tumor Rh18 cell line growth inhibition [Asc]; details: second compound 3 µM; first compound 1 µM; stronger effect = lower value;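 further: spheroids exposed to compound for 7 days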;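 on viability, T/C: 100% = DMSO vehicle control wells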
# viability, T/C annotations
Quantity Kind: viability, T/C (%)

- CCN1CCN(Cc2ccc(Nc3ncc(F)c(-c4cc(F)c5nc(C)n(C(C)C)c5c4)n3)nc2)CC1 + CCN1C(C(=O)NC23CCC(C(=O)O)(CC2)CC3)C(c2cccc(Cl)c2F)C2(C(=O)Nc3cc(Cl)ccc32)C12CCCCC2: 13.3
- O=C(c1ccc(F)c(F)c1Nc1ccc(I)cc1F)N1CC(O)([C@@H]2CCCCN2)C1 + CCN1C(C(=O)NC23CCC(C(=O)O)(CC2)CC3)C(c2cccc(Cl)c2F)C2(C(=O)Nc3cc(Cl)ccc32)C12CCCCC2: 1.01
- C=C(F)C(=O)N1CCN(c2nc(OCC3CCCN3C)nc3c2CCN(c2cccc4cccc(Cl)c24)C3)CC1CC#N (stereo not drawn) + CCN1C(C(=O)NC23CCC(C(=O)O)(CC2)CC3)C(c2cccc(Cl)c2F)C2(C(=O)Nc3cc(Cl)ccc32)C12CCCCC2: 5.04

###

Listed here: items and their measured IC50.
test system: Rh18 complex spheroid viability, percent test/control; experiment: Anticancer human tumor Rh18 cell line growth inhibition [Asc]; settings: curve of first compound; second compound 0.949 µM;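 further: spheroids exposed to compound for 7 days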
Quantity Kind: IC50

- CNC(C)C(=O)NC1CN(S(=O)(=O)c2cccc(S(=O)(=O)N3CCC4CCC(C(=O)NC(c5ccccc5)c5ccccc5)N4C(=O)C(NC(=O)C(C)NC)C3)c2)CCC2CCC(C(=O)NC(c3ccccc3)c3ccccc3)N2C1=O (configuration not stated) + CCN1C(C(=O)NC23CCC(C(=O)O)(CC2)CC3)C(c2cccc(Cl)c2F)C2(C(=O)Nc3cc(Cl)ccc32)C12CCCCC2: < 3.16 nM
- Cc1nc(N2CCC3(CC2)COC(C)C3N)c(CO)nc1Sc1ccnc(N)c1Cl (configuration not stated) + CCN1C(C(=O)NC23CCC(C(=O)O)(CC2)CC3)C(c2cccc(Cl)c2F)C2(C(=O)Nc3cc(Cl)ccc32)C12CCCCC2: < 9.49 nM
- COc1c(OCCCN2CCOCC2)ccc2c3n(c(=NC(=O)c4cnc(N)nc4)nc12)CCN3 + CCN1C(C(=O)NC23CCC(C(=O)O)(CC2)CC3)C(c2cccc(Cl)c2F)C2(C(=O)Nc3cc(Cl)ccc32)C12CCCCC2: < 3.16 nM
- CCN1CCN(Cc2ccc(Nc3ncc(F)c(-c4cc(F)c5nc(C)n(C(C)C)c5c4)n3)nc2)CC1 + CCN1C(C(=O)NC23CCC(C(=O)O)(CC2)CC3)C(c2cccc(Cl)c2F)C2(C(=O)Nc3cc(Cl)ccc32)C12CCCCC2: < 3.16 nM
- NC1CCC(NC2CC2c2ccccc2)CC1 (configuration not stated) + CCN1C(C(=O)NC23CCC(C(=O)O)(CC2)CC3)C(c2cccc(Cl)c2F)C2(C(=O)Nc3cc(Cl)ccc32)C12CCCCC2: < 0.316 nM
- C=CC(=O)N1CCN(c2nc(=O)n(-c3c(C)ccnc3C(C)C)c3nc(-c4c(O)cccc4F)c(F)cc23)C(C)C1 (configuration not stated) + CCN1C(C(=O)NC23CCC(C(=O)O)(CC2)CC3)C(c2cccc(Cl)c2F)C2(C(=O)Nc3cc(Cl)ccc32)C12CCCCC2: < 31.6 nM
- NC(=O)C(=Cn1cnc(-c2cc(C(F)(F)F)cc(C(F)(F)F)c2)n1)c1cncnc1 + CCN1C(C(=O)NC23CCC(C(=O)O)(CC2)CC3)C(c2cccc(Cl)c2F)C2(C(=O)Nc3cc(Cl)ccc32)C12CCCCC2: < 0.949 nM
- C=C(F)C(=O)N1CCN(c2nc(OCC3CCCN3C)nc3c2CCN(c2cccc4cccc(Cl)c24)C3)CC1CC#N (configuration not stated) + CCN1C(C(=O)NC23CCC(C(=O)O)(CC2)CC3)C(c2cccc(Cl)c2F)C2(C(=O)Nc3cc(Cl)ccc32)C12CCCCC2: < 31.6 nM
- O=C(c1cc(Cc2n[nH]c(=O)c3ccccc23)ccc1F)N1CCN(C(=O)C2CC2)CC1 + CCN1C(C(=O)NC23CCC(C(=O)O)(CC2)CC3)C(c2cccc(Cl)c2F)C2(C(=O)Nc3cc(Cl)ccc32)C12CCCCC2: < 31.6 nM
- O=C(c1ccc(F)c(F)c1Nc1ccc(I)cc1F)N1CC(O)([C@@H]2CCCCN2)C1 + CCN1C(C(=O)NC23CCC(C(=O)O)(CC2)CC3)C(c2cccc(Cl)c2F)C2(C(=O)Nc3cc(Cl)ccc32)C12CCCCC2: < 3.16 nM
- C#Cc1c(F)ccc2cc(O)cc(-c3ncc4c(N5CC6CCC(C5)N6)nc(OCC56CCCN5CC(F)C6)nc4c3F)c12 (configuration not stated) + CCN1C(C(=O)NC23CCC(C(=O)O)(CC2)CC3)C(c2cccc(Cl)c2F)C2(C(=O)Nc3cc(Cl)ccc32)C12CCCCC2: < 31.6 nM
- Cn1ncnc1[C@H]1c2n[nH]c(=O)c3cc(F)cc(c23)N[C@@H]1c1ccc(F)cc1 + CCN1C(C(=O)NC23CCC(C(=O)O)(CC2)CC3)C(c2cccc(Cl)c2F)C2(C(=O)Nc3cc(Cl)ccc32)C12CCCCC2: < 0.316 nM

meta.source: PubChem BioAssay AID1963431
